All figures here come from paper PMC9848300.

# System: U251
# protocolText: NCI 60 antitumor screening (single dose)
# Type: cell-based
# assayConditions: Homo sapiens, U-251; U251 (CNS cancer), single dose 10 μM; read-out: Growth inhibition percentage (GI %)
# maps each entry to its inhibition at 10 µM
recordedEndpoint: inhibition at 10 µM (%)

>  <molSmiles>
C(=N\Nc1nc(N/N=C/c2ccc3c(c2)OCO3)nc(N2CCCCC2)n1)/c1ccc2c(c1)OCO2

>  <recordedEndpoint>
inhibition at 10 µM

>  <readoutUnit>
%

>  <observedResult>
18.6

$$$$
>  <molSmiles>
CN(C)c1ccc(/C=N/Nc2nc(N/N=C/c3ccc(N(C)C)cc3)nc(N3CCOCC3)n2)cc1

>  <recordedEndpoint>
inhibition at 10 µM

>  <readoutUnit>
%

>  <observedResult>
55.7

$$$$
>  <molSmiles>
O=C1Nc2ccc(Cl)cc2/C1=N\Nc1nc(N/N=C2/C(=O)Nc3ccc(Cl)cc32)nc(N2CCOCC2)n1

>  <recordedEndpoint>
inhibition at 10 µM

>  <readoutUnit>
%

>  <observedResult>
96.2

$$$$
>  <molSmiles>
O=C(NNc1nc(NNC(=O)c2ccccc2)nc(N2CCOCC2)n1)c1ccccc1

>  <recordedEndpoint>
inhibition at 10 µM

>  <readoutUnit>
%

>  <observedResult>
-0.3

$$$$
>  <molSmiles>
Fc1cccc(/C=N/Nc2nc(N/N=C/c3cccc(F)c3)nc(N3CCOCC3)n2)c1

>  <recordedEndpoint>
inhibition at 10 µM

>  <readoutUnit>
%

>  <observedResult>
23.8

$$$$
>  <molSmiles>
O=[N+]([O-])c1cc(/C=N/Nc2nc(N/N=C/c3ccc(Cl)c([N+](=O)[O-])c3)nc(N3CCCCC3)n2)ccc1Cl

>  <recordedEndpoint>
inhibition at 10 µM

>  <readoutUnit>
%

>  <observedResult>
81.5

$$$$
>  <molSmiles>
CN(C)c1ccc(/C=N/Nc2nc(N/N=C/c3ccc(N(C)C)cc3)nc(N3CCCCC3)n2)cc1

>  <recordedEndpoint>
inhibition at 10 µM

>  <readoutUnit>
%

>  <observedResult>
50

$$$$

====

Reported inhibition at 10 µM values follow for various compounds
# Test system: MCF7
# protocolText: NCI 60 antitumor screening (single dose)
# Assay type: cell-based
# assayConditions: Homo sapiens; MCF7 (breast cancer), single dose 10 μM; read-out: Growth inhibition percentage (GI %)

>  <molSmiles>
CN(C)c1ccc(/C=N/Nc2nc(N/N=C/c3ccc(N(C)C)cc3)nc(N3CCOCC3)n2)cc1

>  <system>
MCF7

>  <inhibition at 10 µM>
45.1%

$$$$
>  <molSmiles>
O=[N+]([O-])c1cc(/C=N/Nc2nc(N/N=C/c3ccc(Cl)c([N+](=O)[O-])c3)nc(N3CCCCC3)n2)ccc1Cl

>  <system>
MCF7

>  <inhibition at 10 µM>
99.1%

$$$$
>  <molSmiles>
Oc1ccccc1/C=N/Nc1nc(N/N=C/c2ccccc2O)nc(N2CCCCC2)n1

>  <system>
MCF7

>  <inhibition at 10 µM>
64.3%

$$$$

====

# Tested on: SF-295
# protocolText: NCI 60 antitumor screening (single dose / five doses)
# Type: cell-based
# assayConditions: Homo sapiens; SF-295, five doses (0.01–100 μM); read-out: GI50
recordedEndpoint: GI50 (µM)

>  <molSmiles>
Fc1cccc(Cl)c1/C=N/Nc1nc(N/N=C/c2c(F)cccc2Cl)nc(N2CCCCC2)n1

>  <observedResult>
1.01

$$$$
>  <molSmiles>
Clc1cccc(/C=N/Nc2nc(N/N=C/c3cccc(Cl)c3)nc(N3CCOCC3)n2)c1

>  <observedResult>
4.13

$$$$
>  <molSmiles>
CN(C)c1ccc(/C=N/Nc2nc(N/N=C/c3ccc(N(C)C)cc3)nc(N3CCCCC3)n2)cc1

>  <observedResult>
1.96

$$$$
>  <molSmiles>
Brc1cccc(/C=N/Nc2nc(N/N=C/c3cccc(Br)c3)nc(N3CCOCC3)n2)c1

>  <observedResult>
4.94

$$$$
>  <molSmiles>
Oc1ccccc1/C=N/Nc1nc(N/N=C/c2ccccc2O)nc(N2CCOCC2)n1

>  <observedResult>
7.67

$$$$

====

# System: MDA-MB-468
# protocolText: NCI 60 antitumor screening (single dose / five doses)
# Format: cell-based
# assayConditions: Homo sapiens; MDA-MB-468 (breast cancer), single dose 10 μM; read-out: Growth inhibition percentage (GI %)
recordedEndpoint: inhibition at 10 µM (%)

>  <molSmiles>
C(=N\Nc1nc(N/N=C/c2ccc3c(c2)OCO3)nc(N2CCOCC2)n1)/c1ccc2c(c1)OCO2

>  <system>
MDA-MB-468

>  <observedResult>
32.1

$$$$
>  <molSmiles>
Brc1cccc(/C=N/Nc2nc(N/N=C/c3cccc(Br)c3)nc(N3CCOCC3)n2)c1

>  <system>
MDA-MB-468

>  <observedResult>
98.9

$$$$
>  <molSmiles>
Brc1ccccc1/C=N/Nc1nc(N/N=C/c2ccccc2Br)nc(N2CCCCC2)n1

>  <system>
MDA-MB-468

>  <observedResult>
12.4

$$$$
>  <molSmiles>
Clc1cccc(/C=N/Nc2nc(N/N=C/c3cccc(Cl)c3)nc(N3CCOCC3)n2)c1

>  <system>
MDA-MB-468

>  <observedResult>
69.2

$$$$

====

# Tested on: K-562
# protocolText: NCI 60 antitumor screening (single dose / five doses)
# Format: cell-based
# assayConditions: Homo sapiens, K562; K-562 (leukaemia), single dose 10 μM; read-out: Growth inhibition percentage (GI %)

>  <molecule>
COC(=O)C(Cc1ccccc1)Nc1nc(NC(Cc2ccccc2)C(=O)OC)nc(N2CCOCC2)n1 (stereo not shown)

>  <inhibition at 10 µM>
8.42%

$$$$
>  <molecule>
Brc1ccccc1/C=N/Nc1nc(N/N=C/c2ccccc2Br)nc(N2CCCCC2)n1

>  <inhibition at 10 µM>
4.67%

$$$$
>  <molecule>
Clc1cccc(/C=N/Nc2nc(N/N=C/c3cccc(Cl)c3Cl)nc(N3CCOCC3)n2)c1Cl

>  <inhibition at 10 µM>
38.6%

$$$$
>  <molecule>
C(=N\Nc1nc(N/N=C/c2ccc3c(c2)OCO3)nc(N2CCOCC2)n1)/c1ccc2c(c1)OCO2

>  <inhibition at 10 µM>
45.6%

$$$$
>  <molecule>
Oc1ccc(/C=N/Nc2nc(N/N=C/c3ccc(O)c(O)c3)nc(N3CCOCC3)n2)cc1O

>  <inhibition at 10 µM>
-5.6%

$$$$
>  <molecule>
O=C1Nc2ccc(Cl)cc2/C1=N\Nc1nc(N/N=C2/C(=O)Nc3ccc(Cl)cc32)nc(N2CCOCC2)n1

>  <inhibition at 10 µM>
67.1%

$$$$
>  <molecule>
C(=N\Nc1nc(N/N=C/c2ccc3c(c2)OCO3)nc(N2CCCCC2)n1)/c1ccc2c(c1)OCO2

>  <inhibition at 10 µM>
58.9%

$$$$

====

# Tested on: SNB-19
# protocolText: NCI 60 antitumor screening (single dose)
# Assay type: cell-based
# assayConditions: Homo sapiens; SNB-19 (CNS cancer), single dose 10 μM; read-out: Growth inhibition percentage (GI %)

>  <compound>
Oc1ccc(/C=N/Nc2nc(N/N=C/c3ccc(O)c(O)c3)nc(N3CCCCC3)n2)cc1O

>  <inhibition at 10 µM (%)>
13.7

$$$$
>  <compound>
CN(C)c1ccc(/C=N/Nc2nc(N/N=C/c3ccc(N(C)C)cc3)nc(N3CCOCC3)n2)cc1

>  <inhibition at 10 µM (%)>
8.7

$$$$
>  <compound>
O=[N+]([O-])c1cc(/C=N/Nc2nc(N/N=C/c3ccc(Cl)c([N+](=O)[O-])c3)nc(N3CCOCC3)n2)ccc1Cl

>  <inhibition at 10 µM (%)>
0.85

$$$$
>  <compound>
Oc1ccc(/C=N/Nc2nc(N/N=C/c3ccc(O)c(O)c3)nc(N3CCOCC3)n2)cc1O

>  <inhibition at 10 µM (%)>
-4.37

$$$$
>  <compound>
O=C(NNc1nc(NNC(=O)c2ccccc2)nc(N2CCOCC2)n1)c1ccccc1

>  <inhibition at 10 µM (%)>
3.32

$$$$
>  <compound>
C(=N\Nc1nc(N/N=C/c2ccc3c(c2)OCO3)nc(N2CCOCC2)n1)/c1ccc2c(c1)OCO2

>  <inhibition at 10 µM (%)>
5.57

$$$$
>  <compound>
Brc1cccc(/C=N/Nc2nc(N/N=C/c3cccc(Br)c3)nc(N3CCOCC3)n2)c1

>  <inhibition at 10 µM (%)>
22.1

$$$$
>  <compound>
O=C1Nc2ccc(Cl)cc2/C1=N\Nc1nc(N/N=C2/C(=O)Nc3ccc(Cl)cc32)nc(N2CCOCC2)n1

>  <inhibition at 10 µM (%)>
109

$$$$
>  <compound>
Oc1ccccc1/C=N/Nc1nc(N/N=C/c2ccccc2O)nc(N2CCOCC2)n1

>  <inhibition at 10 µM (%)>
58.3

$$$$
>  <compound>
Clc1cccc(/C=N/Nc2nc(N/N=C/c3cccc(Cl)c3)nc(N3CCOCC3)n2)c1

>  <inhibition at 10 µM (%)>
12.1

$$$$
>  <compound>
C(=N\Nc1nc(N/N=C/c2ccc3c(c2)OCO3)nc(N2CCCCC2)n1)/c1ccc2c(c1)OCO2

>  <inhibition at 10 µM (%)>
19.7

$$$$
>  <compound>
Fc1cccc(Cl)c1/C=N/Nc1nc(N/N=C/c2c(F)cccc2Cl)nc(N2CCOCC2)n1

>  <inhibition at 10 µM (%)>
12.9

$$$$
>  <compound>
CN(C)c1ccc(/C=N/Nc2nc(N/N=C/c3ccc(N(C)C)cc3)nc(N3CCCCC3)n2)cc1

>  <inhibition at 10 µM (%)>
13.9

$$$$
>  <compound>
Clc1cccc(/C=N/Nc2nc(N/N=C/c3cccc(Cl)c3Cl)nc(N3CCOCC3)n2)c1Cl

>  <inhibition at 10 µM (%)>
12.3

$$$$
>  <compound>
Clc1cccc(/C=N/Nc2nc(N/N=C/c3cccc(Cl)c3)nc(N3CCCCC3)n2)c1

>  <inhibition at 10 µM (%)>
1.37

$$$$
>  <compound>
Fc1cccc(Cl)c1/C=N/Nc1nc(N/N=C/c2c(F)cccc2Cl)nc(N2CCCCC2)n1

>  <inhibition at 10 µM (%)>
74.2

$$$$
>  <compound>
COC(=O)C(Cc1ccccc1)Nc1nc(NC(Cc2ccccc2)C(=O)OC)nc(N2CCOCC2)n1 (stereo not shown)

>  <inhibition at 10 µM (%)>
-3.58

$$$$
>  <compound>
Oc1ccccc1/C=N/Nc1nc(N/N=C/c2ccccc2O)nc(N2CCCCC2)n1

>  <inhibition at 10 µM (%)>
44

$$$$
>  <compound>
O=[N+]([O-])c1cccc(/C=N/Nc2nc(N/N=C/c3cccc([N+](=O)[O-])c3)nc(N3CCCCC3)n2)c1

>  <inhibition at 10 µM (%)>
11.5

$$$$
>  <compound>
C/C(=N\Nc1nc(N/N=C(\C)c2ccc([N+](=O)[O-])cc2)nc(N2CCOCC2)n1)c1ccc([N+](=O)[O-])cc1

>  <inhibition at 10 µM (%)>
36.9

$$$$
>  <compound>
Brc1ccccc1/C=N/Nc1nc(N/N=C/c2ccccc2Br)nc(N2CCOCC2)n1

>  <inhibition at 10 µM (%)>
-1.04

$$$$
>  <compound>
Fc1cccc(/C=N/Nc2nc(N/N=C/c3cccc(F)c3)nc(N3CCOCC3)n2)c1

>  <inhibition at 10 µM (%)>
1.85

$$$$
>  <compound>
Fc1cccc(/C=N/Nc2nc(N/N=C/c3cccc(F)c3)nc(N3CCCCC3)n2)c1

>  <inhibition at 10 µM (%)>
3.96

$$$$
>  <compound>
O=[N+]([O-])c1cc(/C=N/Nc2nc(N/N=C/c3ccc(Cl)c([N+](=O)[O-])c3)nc(N3CCCCC3)n2)ccc1Cl

>  <inhibition at 10 µM (%)>
27.4

$$$$
>  <compound>
O=[N+]([O-])c1cccc(/C=N/Nc2nc(N/N=C/c3cccc([N+](=O)[O-])c3)nc(N3CCOCC3)n2)c1

>  <inhibition at 10 µM (%)>
4.49

$$$$
>  <compound>
Brc1ccccc1/C=N/Nc1nc(N/N=C/c2ccccc2Br)nc(N2CCCCC2)n1

>  <inhibition at 10 µM (%)>
3.76

$$$$
>  <compound>
Clc1cccc(/C=N/Nc2nc(N/N=C/c3cccc(Cl)c3Cl)nc(N3CCCCC3)n2)c1Cl

>  <inhibition at 10 µM (%)>
4.59

$$$$
>  <compound>
Brc1cccc(/C=N/Nc2nc(N/N=C/c3cccc(Br)c3)nc(N3CCCCC3)n2)c1

>  <inhibition at 10 µM (%)>
-2.24

$$$$
